Is melting point at least 200 °C? Then MET. If not, NOT MET.

[in] Is the recorded value of melting point equal to or greater than 200 °C for this molecule? O=C1CCc2cc3c(cc2N1)NCCC3
[out] MET

[in] Exam item: decide whether the reported melting point for Nc1cccc(C(=O)O)c1O is at least 200 °C.
[out] MET

[in] Is it the case that CC12C(=O)OC(=O)C1(C)C1CCC2O1 (stereo not given) has melting point reaching or exceeding 200 °C?
[out] MET

[in] Is reported melting point greater than or equal to 200 °C here: Cn1ccc(C(=O)O)n1
[out] NOT MET

[in] Tell me whether melting point is at least 200 °C here: COc1ccc(F)c(CBr)c1F
[out] NOT MET

[in] melting point >= 200 °C for C=C(C)C1Cc2c(ccc3c2OC2COc4cc(OC)c(OC)cc4C2C3=O)O1 (stereo not given) ?
[out] NOT MET

Just for reference, a melting point compilation (Tetko et al.) is where these values come from.
